Target: T1, 6xHis-SUMO-SIRT2 (human SIRT2 catalytic domain, amino acids 34-356, with N-terminal 6xHis-SUMO tag) (human, UniProt Q8IXJ6 34-356)
T1 construct: human SIRT2 catalytic domain, amino acids 34-356; Used in the HTRF assays; held near the FRET donor by a terbium cryptate-labeled anti-6xHis antibody (a tool); also called His tagged-SIRT2; sirtuin-2; not shown: His6, N-terminal, kept; SUMO, N-terminal, kept
T1 sequence (looked up): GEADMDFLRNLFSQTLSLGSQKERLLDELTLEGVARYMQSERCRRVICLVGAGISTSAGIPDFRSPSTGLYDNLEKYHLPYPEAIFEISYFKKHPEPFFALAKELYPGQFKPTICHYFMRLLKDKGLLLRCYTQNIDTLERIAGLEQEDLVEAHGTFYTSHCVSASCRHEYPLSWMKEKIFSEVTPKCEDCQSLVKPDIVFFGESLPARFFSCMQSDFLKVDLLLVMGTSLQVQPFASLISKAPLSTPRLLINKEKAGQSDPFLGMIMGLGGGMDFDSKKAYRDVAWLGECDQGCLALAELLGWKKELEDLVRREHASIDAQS
Assay: AlphaScreen or HTRF; competition; 3 nM SIRT2, 0.2 nM terbium cryptate-labeled antibody, 3 nM FAM-myristoyl-H4K16 peptide, 10 ul/well; unlabeled myristoyl-H4K16 peptide as competitor
Settings: both partners purified
Ends that are not written are not given here. * marks the point of attachment. Myristoyl = CCCCCCCCCCCCCC(=O)*
Property measured: pIC50
# pIC50 = -log10(concentration in molar units)

QUERY: Provide one value: measured pIC50 of KGLGKGGAK(Myristoyl)RHRK
RESULT: 8.70
